All figures here come from ChEMBL document CHEMBL1944529.

- target: Acetylcholine-binding protein (Lymnaea stagnalis, UniProt P58154)
- Sequence (P58154 whole entry): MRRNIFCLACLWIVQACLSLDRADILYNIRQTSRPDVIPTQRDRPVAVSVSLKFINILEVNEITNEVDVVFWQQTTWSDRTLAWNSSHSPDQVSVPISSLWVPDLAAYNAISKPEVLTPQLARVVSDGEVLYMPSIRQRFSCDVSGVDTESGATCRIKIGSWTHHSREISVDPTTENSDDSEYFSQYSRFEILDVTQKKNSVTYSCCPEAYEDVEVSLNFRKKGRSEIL
- protocol-text: Displacement of [3H]epibatidine from Lymnaea stagnalis acetylcholine binding protein expressed using baculoviral system after 1.5 hrs by scintillation counting
measured-parameter: Ki (µM)
Give the value, in units of µM, as a plain number.

compound	unit-annotation	Ki
C[N+]1(CC(O)c2ccccc2)[C@@H]2CC[C@H]1C[C@@H](OC(=O)c1ccccc1)C2 (stereo partly drawn)	µM	0.126
CN1[C@@H]2CC[C@H]1C[C@@H](OC(=O)c1ccccc1)C2 [BENZOYL TROPINE]	µM	2
O=C(O[C@H]1C[C@H]2CC[C@@H](C1)N2C[C@H](O)c1ccccc1)c1ccccc1	µM	0.794

stdin: Fill in: Ki of Oc1cccc(C(O)CN2[C@@H]3CC[C@H]2C[C@@H](OC2c4ccccc4CCc4ccccc42)C3)c1 (mixture of isomers) is ___
stdout: 2

stdin: Fill in: Ki of O=C(O[C@H]1C[C@H]2CC[C@@H](C1)N2CCc1ccccc1)c1ccccc1 is ___
stdout: 0.0794

###

- target: Neuronal acetylcholine receptor subunit alpha-7 (Homo sapiens)
- Sequence (P36544 whole entry): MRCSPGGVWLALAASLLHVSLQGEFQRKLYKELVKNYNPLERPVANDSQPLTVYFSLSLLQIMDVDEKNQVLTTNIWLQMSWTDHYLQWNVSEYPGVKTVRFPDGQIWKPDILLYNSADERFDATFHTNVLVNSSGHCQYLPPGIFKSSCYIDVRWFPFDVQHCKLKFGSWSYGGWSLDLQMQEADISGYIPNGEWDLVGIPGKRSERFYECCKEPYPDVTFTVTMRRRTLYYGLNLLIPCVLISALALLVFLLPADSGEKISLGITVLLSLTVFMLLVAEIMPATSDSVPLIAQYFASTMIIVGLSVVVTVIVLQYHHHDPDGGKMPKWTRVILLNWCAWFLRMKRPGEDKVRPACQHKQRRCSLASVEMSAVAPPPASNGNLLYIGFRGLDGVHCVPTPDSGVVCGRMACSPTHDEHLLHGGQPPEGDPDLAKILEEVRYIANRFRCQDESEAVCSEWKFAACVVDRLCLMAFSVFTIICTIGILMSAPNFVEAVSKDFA
- protocol-text: Displacement of [3H]MLA from nAChR alpha7 receptor in human SH-SY5Y cells by scintillation counting
measured-parameter: Ki (µM)
Give the value, in units of µM, as a plain number.

The cases that follow already have their Ki on record.
molecule	target	Ki, µM
O=C(O[C@H]1C[C@H]2CC[C@@H](C1)N2)c1ccccc1	Neuronal acetylcholine receptor subunit alpha-7 (Homo sapiens)	3.16
C[N+]1(C)[C@@H]2CC[C@H]1C[C@@H](OC1c3ccccc3CCc3ccccc31)C2	Neuronal acetylcholine receptor subunit alpha-7 (Homo sapiens)	1
C[N+]1(CCc2ccccc2)[C@@H]2CC[C@H]1C[C@@H](OC(=O)c1ccccc1)C2 (stereo not given in full)	Neuronal acetylcholine receptor subunit alpha-7 (Homo sapiens)	6.31

stdin: Fill in: Ki of c1ccc(CCN2[C@@H]3CC[C@H]2C[C@@H](OC2c4ccccc4CCc4ccccc42)C3)cc1 is ___
stdout: 12.6

stdin: Fill in: Ki of O=C(O[C@H]1C[C@H]2CC[C@@H](C1)N2CC(O)c1cccc(O)c1)c1ccccc1 (stereo not given in full) is ___
stdout: 25.1

###

- target: Neuronal acetylcholine receptor subunit alpha-7 (Homo sapiens)
- protocol-text: Displacement of [3H]MLA from nAChR alpha7 receptor in human SH-SY5Y cells by scintillation counting
Entries annotated with measured Ki
Give the value, in units of µM, as a plain number.

The cases that follow already have their Ki on record.
compound	Ki [µM]
O=C(O[C@H]1C[C@H]2CC[C@@H](C1)N2CCc1ccccc1)c1ccccc1	7.94
C[N+]1(CCc2ccccc2)[C@@H]2CC[C@H]1C[C@@H](OC1c3ccccc3CCc3ccccc31)C2 (stereo partly drawn)	1.58
O=C(O[C@H]1C[C@H]2CC[C@@H](C1)N2CCc1cccc(O)c1)c1ccccc1	12.6
CN1[C@@H]2CC[C@H]1C[C@@H](OC(=O)c1ccccc1)C2 [BENZOYL TROPINE]	15.8
Oc1cccc(C(O)CN2[C@@H]3CC[C@H]2C[C@@H](OC2c4ccccc4CCc4ccccc42)C3)c1 (mixture of isomers)	39.8

stdin: Fill in: Ki of O=C(O[C@@H]1C[C@H]2CC[C@@H](C1)N2CC(O)c1cc(O)cc(O)c1)c1ccccc1 (stereo partly drawn) is ___
stdout: 12.6

stdin: Fill in: Ki of C[N+]1(CC(O)c2ccccc2)[C@@H]2CC[C@H]1C[C@@H](OC(=O)c1ccccc1)C2 (stereo partly drawn) is ___
stdout: 10

stdin: Fill in: Ki of OC(CN1[C@@H]2CC[C@H]1C[C@@H](OC1c3ccccc3CCc3ccccc31)C2)c1ccccc1 (mixture of isomers) is ___
stdout: 20

###

- target: UniProt Q8WSF8
- Sequence (Q8WSF8 whole entry): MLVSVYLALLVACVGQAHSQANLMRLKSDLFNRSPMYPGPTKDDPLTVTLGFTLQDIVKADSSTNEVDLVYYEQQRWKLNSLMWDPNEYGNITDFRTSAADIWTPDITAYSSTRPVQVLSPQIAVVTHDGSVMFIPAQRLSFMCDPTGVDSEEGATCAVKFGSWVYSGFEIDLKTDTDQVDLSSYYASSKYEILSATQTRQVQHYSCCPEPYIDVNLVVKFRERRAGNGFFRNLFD
pKi: −log10 of the molar value.
Everything with pKi lower than 5 is label 0; everything else, including exactly 5, is label 1.

stdin: Check the entry O=C(O[C@H]1C[C@H]2CC[C@@H](C1)N2C[C@@H](O)c1ccccc1)c1ccccc1 : does pKi equal or exceed 5?
stdout: label 1

stdin: Check the entry O=C(O[C@H]1C[C@H]2CC[C@@H](C1)N2)c1ccccc1 : does pKi equal or exceed 5?
stdout: label 1

stdin: Check the entry Oc1cccc(C(O)CN2[C@@H]3CC[C@H]2C[C@@H](OC2c4ccccc4CCc4ccccc42)C3)c1 (mixture of isomers) : does pKi equal or exceed 5?
stdout: label 0

stdin: Check the entry CN1CCC[C@H]1c1cccnc1 : does pKi equal or exceed 5?
stdout: label 1

stdin: Check the entry CN1[C@@H]2CC[C@H]1C[C@H](OC(=O)c1ccccc1)C2 : does pKi equal or exceed 5?
stdout: label 0

###

List of Ki tested on Soluble acetylcholine receptor (Aplysia californica, UniProt Q8WSF8).
Give the value, in units of nM, as a plain number.

The cases that follow already have their Ki on record.
compound	target	unit-annotation	Ki
O=C(O[C@@H]1C[C@H]2CC[C@@H](C1)N2CC(O)c1cc(O)cc(O)c1)c1ccccc1 (stereo partly drawn)	Soluble acetylcholine receptor (Aplysia californica, UniProt Q8WSF8)	nM	20000
O=C(O[C@H]1C[C@H]2CC[C@@H](C1)N2CC(O)c1ccccc1)c1ccccc1 (mixture of isomers)	Soluble acetylcholine receptor (Aplysia californica, UniProt Q8WSF8)	nM	158
C[N+]1(CC(O)c2ccccc2)[C@@H]2CC[C@H]1C[C@@H](OC(=O)c1ccccc1)C2 (stereo partly drawn)	Soluble acetylcholine receptor (Aplysia californica, UniProt Q8WSF8)	nM	2000
C[N+]1(C[C@H](O)c2ccccc2)[C@@H]2CC[C@H]1C[C@@H](OC(=O)c1ccccc1)C2 (stereo partly drawn)	Soluble acetylcholine receptor (Aplysia californica, UniProt Q8WSF8)	nM	794
CN1[C@@H]2CC[C@H]1C[C@@H](OC(=O)c1ccccc1)C2	Soluble acetylcholine receptor (Aplysia californica, UniProt Q8WSF8)	nM	3980
CN1[C@@H]2CC[C@H]1C[C@@H](OC1c3ccccc3CCc3ccccc31)C2	Soluble acetylcholine receptor (Aplysia californica, UniProt Q8WSF8)	nM	6310
O=C(O[C@H]1C[C@H]2CC[C@@H](C1)N2CCc1cccc(O)c1)c1ccccc1	Soluble acetylcholine receptor (Aplysia californica, UniProt Q8WSF8)	nM	200

# ---- query compound ----
stdin: Fill in: Ki of O=C(O[C@H]1C[C@H]2CC[C@@H](C1)N2CC(O)c1cc(O)cc(O)c1)c1ccccc1 (stereo partly drawn) is ___
stdout: 7940

###

- target: Soluble acetylcholine receptor (Aplysia californica)
- Sequence (Q8WSF8 whole entry): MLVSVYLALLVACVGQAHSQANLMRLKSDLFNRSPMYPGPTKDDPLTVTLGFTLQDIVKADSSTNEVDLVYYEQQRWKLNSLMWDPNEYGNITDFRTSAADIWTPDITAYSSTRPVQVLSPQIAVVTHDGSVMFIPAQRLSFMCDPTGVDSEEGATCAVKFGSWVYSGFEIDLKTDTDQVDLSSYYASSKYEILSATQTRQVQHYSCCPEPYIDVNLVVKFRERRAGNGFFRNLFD
Entries annotated with measured Ki

The cases that follow already have their Ki on record.
molecule	target	Ki
O=C(O[C@@H]1C[C@H]2CC[C@@H](C1)N2CCc1ccccc1)c1ccccc1	Soluble acetylcholine receptor (Aplysia californica)	1000 nM
c1ccc(CCN2[C@@H]3CC[C@H]2C[C@@H](OC2c4ccccc4CCc4ccccc42)C3)cc1	Soluble acetylcholine receptor (Aplysia californica)	10000 nM
c1ccc2c(c1)CCc1ccccc1C2O[C@H]1C[C@H]2CC[C@@H](C1)N2	Soluble acetylcholine receptor (Aplysia californica)	10000 nM
O=C(O[C@H]1C[C@H]2CC[C@@H](C1)N2CC(O)c1cccc(O)c1)c1ccccc1 (stereo partly drawn)	Soluble acetylcholine receptor (Aplysia californica)	631 nM
OC(CN1[C@@H]2CC[C@H]1C[C@@H](OC1c3ccccc3CCc3ccccc31)C2)c1ccccc1 (mixture of isomers)	Soluble acetylcholine receptor (Aplysia californica)	12600 nM
C[N+]1(CCc2ccccc2)[C@@H]2CC[C@H]1C[C@@H](OC1c3ccccc3CCc3ccccc31)C2 (stereo partly drawn)	Soluble acetylcholine receptor (Aplysia californica)	631 nM
C[N+]1(C)[C@@H]2CC[C@H]1C[C@@H](OC1c3ccccc3CCc3ccccc31)C2	Soluble acetylcholine receptor (Aplysia californica)	1000 nM

stdin: Fill in: Ki of O=C(O[C@H]1C[C@H]2CC[C@@H](C1)N2C[C@H](O)c1ccccc1)c1ccccc1 is ___
stdout: 100 nM
